- experimental_system: Vasopressin V2 receptor (Homo sapiens, UniProt P30518)
- Sequence (P30518 whole entry): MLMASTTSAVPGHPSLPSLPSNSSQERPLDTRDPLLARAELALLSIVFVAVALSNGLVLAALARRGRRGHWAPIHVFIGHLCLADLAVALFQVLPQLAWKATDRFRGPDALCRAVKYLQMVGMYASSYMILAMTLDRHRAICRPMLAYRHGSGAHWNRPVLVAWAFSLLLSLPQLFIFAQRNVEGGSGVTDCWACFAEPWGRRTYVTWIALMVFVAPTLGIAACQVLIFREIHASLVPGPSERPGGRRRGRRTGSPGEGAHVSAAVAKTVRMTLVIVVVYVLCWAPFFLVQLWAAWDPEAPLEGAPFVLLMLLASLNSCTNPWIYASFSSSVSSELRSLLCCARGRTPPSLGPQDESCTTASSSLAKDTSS
- test_method_notes: Inhibition of 1 nM AVP-induced cAMP accumulation in cells expressing human vasopressin V2 receptor
- Format: functional
pKi: −log10 of the molar value.
measurement_name: pKi

Solved cases below.
compound="Cc1ccc(F)cc1C(=O)Nc1ccc(C(=O)N2CC3CSCCN3Cc3ccccc32)c(Cl)c1 (stereo not given)" quantitative_result=6.52
compound=O=C(Nc1ccc(C(=O)N2C[C@H]3CSCCN3Cc3ccccc32)c(Cl)c1)c1ccccc1-c1ccccc1 quantitative_result=7.77

1 = O=C(Nc1ccc(C(=O)N2C[C@H]3COCCN3Cc3ccccc32)cc1)c1ccccc1-c1ccccc1
2 = COc1ccc(-c2ccccc2C(=O)Nc2ccc(C(=O)N3C[C@H]4COCCN4Cc4ccccc43)c(Cl)c2)cc1
Query: Lab notebook, comparison: 1 versus 2 , higher pKi goes to which? // return label of chosen record
Response: 2

I = Cc1ccc(F)cc1C(=O)Nc1ccc(C(=O)N2C[C@H]3COCCN3Cc3ccccc32)c(Cl)c1
II = O=C(Nc1ccc(C(=O)N2CC3COCCN3Cc3ccccc32)c(Cl)c1)c1ccccc1-c1ccccc1 (single isomer, unassigned)
Query: Lab notebook, comparison: I versus II , higher pKi goes to which? // return label of chosen record
Response: I
(I: 7.92, II: 6.77)

a = O=C(Nc1ccc(C(=O)N2C[C@H]3COCCN3Cc3ccccc32)c(Cl)c1)c1ccccc1-c1cccc(O)c1
b = COc1ccc(C(=O)Nc2ccc(C(=O)N3C[C@H]4COCCN4Cc4ccccc43)c(Cl)c2)c(-c2ccccc2)c1
c = O=C(Nc1ccc(C(=O)N2C[C@H]3COCCN3Cc3ccccc32)c(Cl)c1)c1ccc(F)cc1-c1ccccc1
d = O=C(Nc1ccc(C(=O)N2C[C@H]3COCCN3Cc3ccccc32)c(Cl)c1)c1cc(O)ccc1-c1ccccc1
e = O=C(Nc1ccc(C(=O)N2C[C@H]3COCCN3Cc3ccccc32)c(Cl)c1)c1ccccc1-c1ccc(O)cc1
Query: # rank by pKi, ascending (min first) In your reply, arrange the labels in the requested order.
Response: d, a, e, b, c
(d: 7.15, a: 7.70, e: 7.96, b: 8.30, c: 8.70)

1 = Cc1ccc(F)cc1C(=O)Nc1ccc(C(=O)N2Cc3cccn3Cc3ccccc32)c(Cl)c1
2 = O=C(Nc1ccc(C(=O)N2CC3CSCCN3Cc3ccccc32)c(Cl)c1)c1cc(F)ccc1-c1ccccc1 (stereo not given)
3 = COc1cccc(-c2ccccc2C(=O)Nc2ccc(C(=O)N3C[C@H]4COCCN4Cc4ccccc43)c(Cl)c2)c1
4 = O=C(Nc1ccc(C(=O)N2C[C@H]3COCCN3Cc3ccccc32)c(Cl)c1)c1cc(F)ccc1-c1ccccc1
Query: # rank by pKi, ascending (min first) In your reply, arrange the labels in the requested order.
Response: 2, 1, 4, 3
(2: 7.15, 1: 7.64, 4: 7.92, 3: 8.70)

* * *

- experimental_system: Vasopressin V2 receptor (Homo sapiens, UniProt P30518)
- test_method_notes: Inhibition of [3H]AVP binding to recombinant human vasopressin V2 receptor
measurement_name: Ki (nM)

Solved cases below.
compound="O=C(Nc1ccc(C(=O)N2CC3CSCCN3Cc3ccccc32)c(O)c1)c1ccccc1-c1ccccc1 (centres undefined)" quantitative_result=3.2
compound="O=C(Nc1ccc(C(=O)N2CC3CSCCN3Cc3ccccc32)c(Cl)c1)c1ccc(F)cc1-c1ccccc1 (centres undefined)" quantitative_result=3.7
compound="O=C(Nc1ccc(C(=O)N2CC3CSCCN3Cc3ccccc32)c(F)c1)c1ccccc1-c1ccccc1 (centres undefined)" quantitative_result=10
compound="O=C(Nc1ccc(C(=O)N2CC3COCCN3Cc3ccccc32)c(Cl)c1)c1ccccc1-c1ccccc1 (single isomer, unassigned)" quantitative_result=15
compound="O=C(Nc1ccc(C(=O)N2CC3CS(=O)(=O)CCN3Cc3ccccc32)cc1)c1ccccc1-c1ccccc1 (centres undefined)" quantitative_result=65

I = O=C(Nc1ccc(C(=O)N2CC3CSCCN3Cc3ccc(F)cc32)cc1)c1ccccc1-c1ccccc1 (centres undefined)
II = Cc1ccc(F)cc1C(=O)Nc1ccc(C(=O)N2CC3CSCCN3Cc3ccccc32)c(Cl)c1 (centres undefined)
Query: Lower Ki: I or II ? // return label of chosen record
Response: I

Origin of measurements: ChEMBL document CHEMBL1146755
